test system: Connective Tissue Sarcoma HT-1080; assay: CellTiter Glo cell viability assay; type: cell-based, human; settings: Homo sapiens, HT-1080, 72 h; 3 Days of treatment; 18 2-fold dilutions 5-0.00003 μM
Measurement Type: pIC50
Convention used: pIC50 is expressed as -log10 of the molar concentration.

Exercise: Please give the measured pIC50 for this molecule: CCOc1cc(O)cc(/C=C/c2ccc(O)c(OC)c2)c1CC=C(C)C
Solution: 7.76

Exercise: Request: COc1cc(/C=C/c2cc(O)cc(OC)c2CC=C(C)C)ccc1O
Solution: 7.44

====

tested on: Liver JHH-5; assay: CellTiter Glo cell viability assay; format: cell-based; settings: Homo sapiens, 72 h; 3 Days of treatment; 18 2-fold dilutions 5-0.00003 μM
Measurement Type: pIC50
Convention used: pIC50 is expressed as -log10 of the molar concentration.

Exercise: Please give the measured pIC50 for this compound: CCOc1cc(O)cc(/C=C/c2ccc(O)c(OC)c2)c1CC=C(C)C [Compound 8]
Solution: 5.36

====

assay: Cell viability in T-cell IL-2 & IL-4 assay (assay number 1299); type: cell-based, human; details: human, human CD4-positive T-cells; maximum reduction of cell viability in T-cell IL-2 & IL-4 assay; read-out: Max Eff.: Viab (1299)
Measurement Type: cytotoxicity (%)
Write the answer as a number in %, unit excluded.

Exercise: Please give the measured cytotoxicity for this molecule: COc1cc(/C=C/c2cc(O)cc(OC)c2CC=C(C)C)ccc1NC(=O)CN [Compound 31]
Solution: 19

Exercise: Request: COc1cc(/C=C/c2cc(O)cc(OC)c2CC=C(C)C)ccc1O [Compound 1]
Solution: 35

Exercise: Request: CCOc1cc(O)cc(/C=C/c2ccc(O)c(O)c2)c1CC=C(C)C [Compound 20]
Solution: 15

Exercise: Request: CCOc1cc(O)cc(/C=C/c2ccc(O)c(OC)c2)c1CC=C(C)C [Compound 8]
Solution: 46

Exercise: Request: CCOc1cc(O)cc(/C=C/c2ccc(NC(=O)C(=O)O)c(OC)c2)c1CC=C(C)C [Compound 35]
Solution: 7

====

Assign pIC50 to each entry below.
Test system: Pancreatic MIA PaCa-2
Assay: CellTiter Glo cell viability assay
Assay type: cell-based, human
Conditions: Homo sapiens, MIA PaCa-2, Table 5A: 11 dilutions 3-0.00001 μM; single experiments Exp E-K; read-out: IC50
Description: 1.7*10^3 cells/well were seeded in quadruplicates in 96-well plate after plating. Drugs were added at 5 μM and 2-fold dilutions over 18 concentrations (0.000038146-5 […] range) to generate a dose-response curve. Cell growth was assessed on day 1, 3 and 5 after drug treatments using the CellTiter Glo Luminescence Cell Viability Assay (Promega) according to manufacturer's protocol. Thermo Scientific Varioskan LUX Multimode Microplate instrument was used for plate reading. […]
pIC50: −log10 of the molar value.

Exercise: Param readout= pIC50; system= Pancreatic MIA PaCa-2; entry= COc1cc(O)cc(/C=C/c2ccc(O)c(N(C)C)c2)c1CC=C(C)C ; returns value.
Solution: < 5.52

Exercise: Request: [H]/N=C(\N)Nc1ccc(C=Cc2cc(O)cc(OCC)c2CC=C(C)C)cc1OC
Solution: < 5.52

Exercise: Request: COc1cc(/C=C/c2cc(NC=O)cc(OC)c2CC=C(C)C)ccc1O
Solution: 5.94

Exercise: Request: COc1cc(/C=C/c2cc(O)cc(OC)c2CC=C(C)C)ccc1NC=O
Solution: 7.00 to 8.00

Exercise: Request: CCOc1cc(O)cc(/C=C/c2ccc(NC=O)c(OC)c2)c1CC=C(C)C
Solution: > 9.00

Exercise: Request: CCOc1cc(O)cc(/C=C/c2ccc(NCC(=O)OC)c(OC)c2)c1CC=C(C)C
Solution: 6.00 to 7.00

Exercise: Request: CCOc1cc(O)cc(/C=C/c2ccc(NC(=O)CCC(=O)O)c(OC)c2)c1CC=C(C)C
Solution: < 5.52

Exercise: Request: COc1cc(O)cc(/C=C/c2cc(O)cc(OC)c2CC=C(C)C)c1
Solution: 6.04

Exercise: Request: COc1cc(/C=C/c2cc(N)cc(OC)c2CC=C(C)C)ccc1O
Solution: ~5.52

Exercise: Request: CNc1cc(/C=C/c2cc(O)cc(OC)c2CC=C(C)C)ccc1O
Solution: < 5.52

Exercise: Request: COc1cc(/C=C/c2cc(O)cc(OC)c2CC=C(C)C)cc(C)c1O
Solution: 5.94
